System: up to 32 different microorganisms
Experiment: in vitro antibacterial activity (MIC), agar dilution on Brain Heart Infusion (BHI) agar with Steers replicator
Format: cell-based
Details: Staphylococcus aureus CMX 642A (code DD); unit assumed
recorded endpoint: MIC (µg/mL)

CCC1OC(=O)C(C)C(=O)C(C)C(OC2OC(C)CC(N(C)C)C2O)C(C)(OCC=Cc2cnc3ccc(Cl)cc3c2)CC(C)C(=O)C(C)C2NC(=O)OC12C (stereo not shown) [Example 191, R is —CH2CH═CH-(6-chloro-3-quinolyl)] = 0.05
CCCO[C@@]1(C)C[C@@H](C)C(=O)[C@H](C)[C@@H](O)[C@](C)(O)[C@@H](CC)OC(=O)[C@H](C)C(=O)[C@H](C)[C@H]1O[C@@H]1O[C@H](C)C[C@H](N(C)C)[C@H]1O [Example 3] = 100
CCC1OC(=O)C(C)C(=O)C(C)C(OC2OC(C)CC(N(C)C)C2O)C(C)(OCC=Cc2cccc([N+](=O)[O-])c2)CC(C)C(=O)C(C)C2NC(=O)OC12C (stereo not shown) [Example 193, R is —CH2CH═CH-(3-nitrophenyl)] = 0.1
CC[C@H]1OC(=O)[C@H](C)C(=O)[C@H](C)[C@@H](O[C@@H]2O[C@H](C)C[C@H](N(C)C)[C@H]2O)[C@@](C)(OCC=Cc2ccc(Cl)cc2)C[C@@H](C)C(=O)[C@H](C)[C@@H](O)[C@]1(C)O [Example 17] = 1.56

----------
This listing pairs molecules with measured MIC.
Test system: up to 32 different microorganisms
Experiment: in vitro antibacterial activity (MIC), agar dilution on Brain Heart Infusion (BHI) agar with Steers replicator
Format: cell-based
Conditions: organism code QQ; unit assumed
Description: Representative compounds of the present invention were assayed in vitro for antibacterial activity as follows: Twelve petri dishes containing successive aqueous dilutions of the test compound mixed with 10 mL of sterilized Brain Heart Infusion (BHI) agar (Difco 0148-01-5) were prepared. Each plate was inoculated with 1:100 (or 1:10 for slow-growing strains, such as Micrococcus and Streptococcus) dilutions of up to 32 different microorganisms, using a Steers replicator block. […]
recorded endpoint: MIC (µg/mL)

CC[C@H]1OC(=O)[C@H](C)C(=O)[C@H](C)[C@@H](O[C@@H]2O[C@H](C)C[C@H](N(C)C)[C@H]2O)[C@@](C)(OCC#Cc2ccc3ncccc3c2)C[C@@H](C)C(=O)[C@H](C)[C@H]2NC(=O)O[C@@]21C = 25
CC[C@H]1OC(=O)[C@H](C)C(=O)[C@H](C)[C@@H](O[C@@H]2O[C@H](C)C[C@H](N(C)C)[C@H]2O)[C@@](C)(OCC=NOCc2cnc3ccccc3c2)C[C@@H](C)C(=O)[C@H](C)[C@H]2NC(=O)O[C@@]21C = 50

----------
Tested on: up to 32 different microorganisms
Experiment: in vitro antibacterial activity (MIC), agar dilution on Brain Heart Infusion (BHI) agar with Steers replicator
Assay type: cell-based
Conditions: Escherichia coli JUHL (code QQ); unit assumed
recorded endpoint: MIC

C=CCO[C@@]1(C)C[C@@H](C)C(=O)[C@H](C)[C@H]2NC(=O)O[C@]2(C)[C@@H](CC)OC(=O)[C@H](C)C(=O)[C@H](C)[C@H]1O[C@@H]1O[C@H](C)C[C@H](N(C)C)[C@H]1O = > 100 µg/mL
CC[C@H]1OC(=O)[C@H](C)C(=O)[C@H](C)[C@@H](O[C@@H]2O[C@H](C)C[C@H](N(C)C)[C@H]2O)[C@@](C)(OCCNCc2ccccc2)C[C@@H](C)C(=O)[C@H](C)[C@@H](O)[C@]1(C)O = 25 µg/mL
CC[C@H]1OC(=O)[C@H](C)C(=O)[C@H](C)[C@@H](O[C@@H]2O[C@H](C)C[C@H](N(C)C)[C@H]2O)[C@@](C)(OCCN)C[C@@H](C)C(=O)[C@H](C)[C@@H](O)[C@]1(C)O = > 100 µg/mL
CC[C@H]1OC(=O)[C@H](C)C(=O)[C@H](C)[C@@H](O[C@@H]2O[C@H](C)C[C@H](N(C)C)[C@H]2O)[C@@](C)(OCC=NO)C[C@@H](C)C(=O)[C@H](C)[C@@H](O)[C@]1(C)O = > 100 µg/mL

----------
Test system: up to 32 different microorganisms
Assay: in vitro antibacterial activity (MIC), agar dilution on Brain Heart Infusion (BHI) agar with Steers replicator
Format: cell-based
Details: Streptococcus Pneumonia ATCC6303 (code XX); unit assumed
This listing pairs molecules with measured MIC.
recorded endpoint: MIC

CC[C@H]1OC(=O)[C@H](C)C(=O)[C@H](C)[C@@H](O[C@@H]2O[C@H](C)C[C@H](N(C)C)[C@H]2O)[C@@](C)(OCCNCc2ccncc2)C[C@@H](C)C(=O)[C@H](C)[C@@H](O)[C@]1(C)O = 0.25 µg/mL
CC[C@H]1OC(=O)[C@H](C)C(=O)[C@H](C)[C@@H](O[C@@H]2O[C@H](C)C[C@H](N(C)C)[C@H]2O)[C@@](C)(OCC=NO)C[C@@H](C)C(=O)[C@H](C)[C@@H](O)[C@]1(C)O = 8 µg/mL

----------
This listing pairs compounds with measured MIC.
Test system: up to 32 different microorganisms
Assay: in vitro antibacterial activity (MIC), agar dilution on Brain Heart Infusion (BHI) agar with Steers replicator
Format: cell-based
Details: organism code VV; unit assumed
recorded endpoint: MIC

CCC1OC(=O)C(C)C(=O)C(C)C(OC2OC(C)CC(N(C)C)C2O)C(C)(OCC=Cc2ccc(F)c3ccccc23)CC(C)C(=O)C(C)C2NC(=O)OC12C (stereo not drawn) = 0.78 µg/mL
CCC(=O)OC1C(OC2C(C)C(=O)C(C)C(=O)OC(CC)C3(C)OC(=O)NC3C(C)C(=O)C(C)CC2(C)OCC=Cc2cnc3ccccc3c2)OC(C)CC1N(C)C (stereo not drawn) = 0.02 µg/mL
CC[C@H]1OC(=O)[C@H](C)C(=O)[C@H](C)[C@@H](O[C@@H]2O[C@H](C)C[C@H](N(C)C)[C@H]2O)[C@@](C)(OCC=Cc2cnc3ccc(C(=O)O)cc3c2)C[C@@H](C)C(=O)[C@H](C)[C@H]2NC(=O)O[C@@]21C = 50 µg/mL
CC[C@H]1OC(=O)[C@H](C)C(=O)[C@H](C)[C@@H](O[C@@H]2O[C@H](C)C[C@H](N(C)C)[C@H]2O)[C@@](C)(OCC=NOCc2cnc3ccccc3c2)C[C@@H](C)C(=O)[C@H](C)[C@H]2NC(=O)O[C@@]21C = 0.05 µg/mL
CC[C@H]1OC(=O)[C@H](C)C(=O)[C@H](C)[C@@H](O[C@@H]2O[C@H](C)C[C@H](N(C)C)[C@H]2O)[C@@](C)(OCC#Cc2ccc3cc(Cl)ccc3c2)C[C@@H](C)C(=O)[C@H](C)[C@H]2NC(=O)O[C@@]21C = 0.02 µg/mL
CC[C@H]1OC(=O)[C@H](C)C(=O)[C@H](C)[C@@H](O[C@@H]2O[C@H](C)C[C@H](N(C)C)[C@H]2O)[C@@](C)(OCC=NOCc2ccc3ccccc3n2)C[C@@H](C)C(=O)[C@H](C)[C@H]2NC(=O)O[C@@]21C = 0.05 µg/mL
CC[C@H]1OC(=O)[C@H](C)C(=O)[C@H](C)[C@@H](O[C@@H]2O[C@H](C)C[C@H](N(C)C)[C@H]2O)[C@@](C)(OCC=Cc2ccc3ncc(Br)cc3c2)C[C@@H](C)C(=O)[C@H](C)[C@H]2NC(=O)O[C@@]21C = 0.05 µg/mL
CC[C@H]1OC(=O)[C@H](C)C(=O)[C@H](C)[C@@H](O[C@@H]2O[C@H](C)C[C@H](N(C)C)[C@H]2O)[C@@](C)(OCCNCc2cnc3ccccc3c2)C[C@@H](C)C(=O)[C@H](C)[C@H]2NC(=O)O[C@@]21C = 0.05 µg/mL
CC[C@H]1OC(=O)[C@H](C)C(=O)[C@H](C)[C@@H](O[C@@H]2O[C@H](C)C[C@H](N(C)C)[C@H]2O)[C@@](C)(OCC=NNC(=O)c2ccccc2)C[C@@H](C)C(=O)[C@H](C)[C@H]2NC(=O)O[C@@]21C = 6.2 µg/mL

----------
Test system: up to 32 different microorganisms
Test: in vitro antibacterial activity (MIC), agar dilution on Brain Heart Infusion (BHI) agar with Steers replicator
Format: cell-based
Settings: organism code KK; unit assumed
This listing pairs molecules with measured log10(MIC).
recorded endpoint: log10(MIC) (log10 of the value in µg/mL)

CCC1OC(=O)C(C)C(=O)C(C)C(OC2OC(C)CC(N(C)C)C2O)C(C)(OCC=Cc2cn(C)c(=O)n(C)c2=O)CC(C)C(=O)C(C)C2NC(=O)OC12C (stereo not drawn) = -1.30
CCC1OC(=O)C(C)C(=O)C(C)C(OC2OC(C)CC(N(C)C)C2O)C(C)(OCC=Cc2ccc(C)c3ccccc23)CC(C)C(=O)C(C)C2NC(=O)OC12C (stereo not drawn) = -1.00
CCC1OC(=O)C(C)C(=O)C(C)C(OC2OC(C)CC(N(C)C)C2O)C(C)(OCC2CC2c2cnc3ccccc3c2)CC(C)C(=O)C(C)C2NC(=O)OC12C (stereo not drawn) = -1.70
CC[C@H]1OC(=O)[C@H](C)C(=O)[C@H](C)[C@@H](O[C@@H]2O[C@H](C)C[C@H](N(C)C)[C@H]2O)[C@@](C)(OCCNOCc2ccc([N+](=O)[O-])cc2)C[C@@H](C)C(=O)[C@H](C)[C@H]2NC(=O)O[C@@]21C = -1.70
CC[C@H]1OC(=O)[C@H](C)C(=O)[C@H](C)[C@@H](O[C@@H]2O[C@H](C)C[C@H](N(C)C)[C@H]2O)[C@@](C)(OCC=NOCc2ccnc3ccccc23)C[C@@H](C)C(=O)[C@H](C)[C@H]2NC(=O)O[C@@]21C = -1.70
C#CCOC1(C)CC(C)C(=O)C(C)C2NC(=O)OC2(C)C(CC)OC(=O)C(C)C(=O)C(C)C1OC1OC(C)CC(N(C)C)C1O (stereo not drawn) = -0.70
CC[C@H]1OC(=O)[C@H](C)C(=O)[C@H](C)[C@@H](O[C@@H]2O[C@H](C)C[C@H](N(C)C)[C@H]2O)[C@@](C)(OCC(=O)c2ccccc2)C[C@@H](C)C(=O)[C@H](C)[C@H]2NC(=O)O[C@@]21C = -0.41
CC[C@H]1OC(=O)[C@H](C)C(=O)[C@H](C)[C@@H](O[C@@H]2O[C@H](C)C[C@H](N(C)C)[C@H]2O)[C@@](C)(OCC#Cc2ccc3ccccc3c2)C[C@@H](C)C(=O)[C@H](C)[C@H]2NC(=O)O[C@@]21C = -1.30
CCC1OC(=O)C(C)C(=O)C(C)C(OC2OC(C)CC(N(C)C)C2O)C(C)(OCC=Cc2cnc3ccc(OC)cc3c2)CC(C)C(=O)C(C)C2NC(=O)OC12C (stereo not drawn) = -2.00
CCC1OC(=O)C(C)C(=O)C(C)C(OC2OC(C)CC(N(C)C)C2O)C(C)(OCc2cccc(I)c2)CC(C)C(=O)C(C)C2NC(=O)OC12C (stereo not drawn) = -0.70
CC[C@H]1OC(=O)[C@H](C)C(=O)[C@H](C)[C@@H](O[C@@H]2O[C@H](C)C[C@H](N(C)C)[C@H]2O)[C@@](C)(OCC#Cc2ccc3cc(Cl)ccc3c2)C[C@@H](C)C(=O)[C@H](C)[C@H]2NC(=O)O[C@@]21C = -1.70
CCC1OC(=O)C(C)C(=O)C(C)C(OC2OC(C)CC(N(C)C)C2O)C(C)(OCC=Cc2cnc3c([N+](=O)[O-])cccc3c2)CC(C)C(=O)C(C)C2NC(=O)OC12C (stereo not drawn) = -2.00
CCC1OC(=O)C(C)C(=O)C(C)C(OC2OC(C)CC(N(C)C)C2O)C(C)(OCC=Cc2cnc3ccc(O)cc3c2)CC(C)C(=O)C(C)C2NC(=O)OC12C (stereo not drawn) [Example 208, R is —CH2CH═CH-(6-hydroxy-3-quinolyl)] = -2.00
CCC1OC(=O)C(C)C(=O)C(C)C(OC2OC(C)CC(N(C)C)C2O)C(C)(OCC=Cc2ccnc3ccccc23)CC(C)C(=O)C(C)C2NC(=O)OC12C (stereo not drawn) = -1.30
